Form field: cell viability (one value per entry).
System: HepG2
PROCEDURE_DETAILS: cell viability relative to DMSO; higher = less toxic
CONDITION_DESCRIPTION: 72 h; 1 nM

{"COMPOUND": "C/C=C1\\NC(=O)[C@H]2CSSCC/C=C/[C@H](CC(=O)N[C@H](C(C)C)C(=O)N2)OC(=O)[C@H](C(C)C)NC1=O [romidepsin]", "TEST_SYSTEM": "HepG2", "cell viability (%)": 87.1}
{"COMPOUND": "CO/N=C(\\C(=O)N[C@@H]1C(=O)N2C(C(=O)OCOC(=O)C(C)(C)C)=C(/C=C\\c3scnc3C)CS[C@H]12)c1csc(N)n1 [cefditoren-pivoxil]", "TEST_SYSTEM": "HepG2", "cell viability (%)": 91}
{"COMPOUND": "CC(C)=CCC/C(C)=C/CC/C(C)=C/CC[C@]1(C)CCc2cc(O)cc(C)c2O1 [delta-tocotrienol]", "TEST_SYSTEM": "HepG2", "cell viability (%)": 90.7}

---

Test system: Vero E6
PROCEDURE_DETAILS: cell viability relative to DMSO; higher = less toxic
CONDITION_DESCRIPTION: 72 h; 10000 nM

{"COMPOUND": "O=[N+]([O-])c1cc(Cl)ccc1S(=O)(=O)N1CCN(Cc2ccccc2)CC1", "cell viability, %": 102}
{"COMPOUND": "CCC(=O)O[C@@H]1CC(=O)O[C@H](C)C/C=C/C=C/[C@H](O)[C@H](C)C[C@H](CC=O)[C@H](O[C@@H]2O[C@H](C)[C@@H](O[C@H]3C[C@@](C)(O)[C@@H](OC(=O)CC)[C@H](C)O3)[C@H](N(C)C)[C@H]2O)[C@H]1OC", "cell viability, %": 95.2}
{"COMPOUND": "CC(=O)Nc1cccc(Nc2ncnc(N3CCC(OCc4ccc(OC(F)(F)F)cc4)CC3)n2)c1C", "cell viability, %": 107}
{"COMPOUND": "CCCCCCCCCCCCCCCCCC(=O)OCC(O)CO (configuration not stated)", "cell viability, %": 100}
{"COMPOUND": "CCn1c2ccccc2c2cc(Nc3ccnc(NCCCN4CCOCC4)n3)ccc21", "cell viability, %": 64.3}
{"COMPOUND": "OC[C@H]1NC[C@@H](O)[C@@H](O)[C@@H]1O", "cell viability, %": 107}
{"COMPOUND": "NCC(CC(=O)O)c1ccc(Cl)cc1 (configuration not stated)", "cell viability, %": 104}

---

Form field: drug-induced phospholipidosis (one value per entry).
Test system: A549-ACE2
PROCEDURE_DETAILS: drug-induced phospholipidosis relative to tamoxifen; higher = more phospholipidosis
CONDITION_DESCRIPTION: 3.33333 µM; 24 h

{"COMPOUND": "OCCN1CCN(CCCN2c3ccccc3Sc3ccc(C(F)(F)F)cc32)CC1", "DISPLAY_UNIT": "%", "drug-induced phospholipidosis": 44.3}
{"COMPOUND": "O=C(NCc1ccccc1)c1csc(Nc2ccncn2)n1", "DISPLAY_UNIT": "%", "drug-induced phospholipidosis": -1.59}
{"COMPOUND": "CCCCCCCCCCC(O)C1C=CC2C(=O)N(c3ccccc3)C(=O)C2N1Nc1ccc([N+](=O)[O-])cc1 (centres undefined)", "DISPLAY_UNIT": "%", "drug-induced phospholipidosis": -1.42}
{"COMPOUND": "C=CC(=O)Nc1cccc(C)c1Nc1ncc2cc(-c3c(Cl)c(OC)cc(OC)c3Cl)ccc2n1", "DISPLAY_UNIT": "%", "drug-induced phospholipidosis": 11}
